Data provenance: patent US12660819B2

Test system: Ipomoea hederacea (IPOHE)
assay_name: Post-emergence Test (glasshouse, percentage damage to the plant)
Type: in vivo
assay_context: post-emergence; 1000 g/ha unless otherwise stated; evaluated after 13 days
// values below are reported IPOHE, percentage damage caused to the plant (five-point scale)
experimental_endpoint: IPOHE, percentage damage caused to the plant (five-point scale)

{"chem_smiles": "Cc1c(-c2ccc(Cl)cc2Cl)c(=O)c(C(=O)O)c(-c2ccc(Cl)c(Cl)c2)n1C", "result": 0}
{"chem_smiles": "CCn1c(C)c(-c2cc(OCCOC)c(Cl)cc2F)c(=O)c(C(=O)O)c1-c1ccc(Cl)c(Cl)c1", "result": "3 (3=41-60%)"}
{"chem_smiles": "CCn1c(C)c(-c2ccc(Cl)cc2Cl)c(=O)c(C(=O)O)c1-c1cnc(Cl)c(Cl)c1", "result": "4 (4=61-80%)"}
{"chem_smiles": "CCn1c(C)c(-c2cc(OC(F)(F)F)ccc2Cl)c(=O)c(C(=O)O)c1-c1ccc(Cl)c(Cl)c1", "result": "2 (2=21-40%)"}
